Tested on: barnyardgrass
Assay: Preemergent control of plant species
Format: in vivo, Echinochloa crusgalli
Settings: Echinochloa crus-galli, pre-emergence, 336 h; 0.25 lb/acre; read-out: percent preemergent control
readoutType: pest or weed control at 280.212 g/ha (%)
Provide only the numeric value, understood in %.

1. CC=CC(=O)N(c1c(F)cccc1F)S(=O)(=O)c1nc2nc(C)ccn2n1 [Compound 288]	100
2. COc1nc2nc(S(=O)(=O)Nc3c(F)cccc3F)nn2cc1C [Compound 214]	100
3. Cc1ccn2nc(S(=O)(=O)Nc3c(Cl)cccc3Cl)nc2n1 [Compound 143]	97
4. Cc1cc(C)n2nc(S(=O)(=O)Nc3c(Cl)cc(F)cc3Cl)nc2n1 [Compound 44]	40

Now for another entry.
# input Identify the reported pest or weed control at 280.212 g/ha for the following entry. CCOCCOC(=O)c1cccc(C)c1NS(=O)(=O)c1nc2nc(C)cc(C)n2n1 [Compound 72]
# output 30

// data source = patent US4740233A
